Give Kd for every item shown.
target: RPtag (large); assay: Buffer additive screen, Kd by fluorescence anisotropy; format: binding, Thermoanaerobacter tengcongensis; details: KCl (3M)
No end group written: not given here.
Answers are plain numbers, in nM.

State measured Kd of the sequence PAELKLITK [Nd8, Cd4, PAELKLITK] with RPtag (large).
0.066

Now for a further sequence.
State measured Kd of the sequence KIANFIPAELKLITKANVQ [Nd2, p5a, e18a, KIANFIPAELKLITKANVQ] with RPtag (large).
0.011

---

biological target: RPtag (large); test: Buffer additive screen, Kd by fluorescence anisotropy; type: binding, Thermoanaerobacter tengcongensis; settings: ribose (3M)
No end group written: not given here.
value-kind: pKd
One number for each entry, as −log10 of the molar value.

Return the recorded pKd value; entry: PAELKLITK [Nd8, Cd4, PAELKLITK]
7.38

---

biological target: RPtag (large); assay: Buffer additive screen, Kd by fluorescence anisotropy; assay type: binding, Thermoanaerobacter tengcongensis; settings: NH4SO4 (3M)
No end group written: not given here.
value-kind: Kd (nM)
Numbers only, in nM.

State measured Kd of the sequence PAELKLITK [Nd8, Cd4, PAELKLITK] with RPtag (large).
2.8

Now for a further sequence.
State measured Kd of the sequence KIANFIPAELKLITKANVQ [Nd2, p5a, e18a, KIANFIPAELKLITKANVQ] with RPtag (large).
44

---

molecular target: RPtag (large); assay: Buffer additive screen, Kd by fluorescence anisotropy; assay type: binding, Thermoanaerobacter tengcongensis; conditions: sorbitol (3M)
No end group written: not given here.
value-kind: Kd (nM)
Give bare numbers, in nM.

State measured Kd of the sequence PAELKLITK [Nd8, Cd4, PAELKLITK] with RPtag (large).
16

---

Give kon (M^−1 min^−1 ) (×10^7) for every item shown.
test system: RPtag (large); assay: Association/dissociation kinetics of RPtag (small) peptides with RPtag (large) by fluorescence anisotropy; assay type: binding, Thermoanaerobacter tengcongensis; settings: S*-LS transition; calculated from measured koff and Kd
Sequence (as listed by the source): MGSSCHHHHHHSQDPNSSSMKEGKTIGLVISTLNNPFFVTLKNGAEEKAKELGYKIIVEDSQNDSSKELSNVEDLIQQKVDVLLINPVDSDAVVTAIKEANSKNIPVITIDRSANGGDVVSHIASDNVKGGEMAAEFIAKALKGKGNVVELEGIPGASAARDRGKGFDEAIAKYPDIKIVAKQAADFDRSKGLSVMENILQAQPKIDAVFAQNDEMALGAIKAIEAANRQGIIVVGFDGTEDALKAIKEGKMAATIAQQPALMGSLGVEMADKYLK

Return the recorded kon (M^−1 min^−1 ) (×10^7) value; entry: AIANFIPAELKLITKANVQ [Nd2, k3a, e18a]
2.6 ± 0.1 ×10^7 M^−1 min^−1

Return the recorded kon (M^−1 min^−1 ) (×10^7) value; entry: GEKIPNFIPAELKLITKENVQ [native]
4.3 ± 0.1 ×10^7 M^−1 min^−1

Continuing:
Return the recorded kon (M^−1 min^−1 ) (×10^7) value; entry: GAKIPNFIPAELKLITKENVQ [e2a]
5.1 ± 0.7 ×10^7 M^−1 min^−1

---

target: RPtag (large); test: Buffer additive screen, Kd by fluorescence anisotropy; type: binding, Thermoanaerobacter tengcongensis; settings: SDS (2%)
No end group written: not given here.
Give Kd for every item shown.

Below are worked cases with known answers.
State measured Kd of the sequence KIANFIPAELKLITKANVQ [Nd2, p5a, e18a, KIANFIPAELKLITKANVQ] with RPtag (large).
> 10 µM

State measured Kd of the sequence PAELKLITK [Nd8, Cd4, PAELKLITK] with RPtag (large).
> 10 µM

Continuing:
State measured Kd of the sequence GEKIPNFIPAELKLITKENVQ [native] with RPtag (large).
> 10 µM

---

molecular target: RPtag (large); experiment: Fluorescence anisotropy Kd of rhodamine labeled RPtag (small) peptides for RPtag (large); type: binding, Thermoanaerobacter tengcongensis; details: N-terminal rhodamine tagged peptide, unlabeled RPtag (large), 50 mM Tris pH 8.0, 0.005% Tween 20; mean ± SE
No end group written: not given here.
Give Kd for every item shown.
Numbers only, in nM.

Return the recorded Kd value; entry: FIPAELKLITK [Nd6, Cd4, FIPAELKLITK]
9.9

Return the recorded Kd value; entry: PAELKLITK [Nd8, Cd4, PAELKLITK]
14

Now for a further sequence.
Return the recorded Kd value; entry: KIANFIPAELKLITKANVQ [Nd2, p5a, e18a, KIANFIPAELKLITKANVQ]
0.047
